SYSTEM NAME: TRPML3 (Homo sapiens)
Construct: expressed in transfected cells
EXPERIMENT SUMMARY: Fluorescent TRPML3 assay (performed as for TRPML1, substituting the TRPML3 subtype)
Assay type: cell-based
CONDITIONS: fluorescent calcium assay
Quick reference: EC50 of the listed items.
READOUT: EC50

{"columns": ["SMILES INPUT", "READOUT", "RESULT"],
 "data": [
  ["CCOC(=O)N1C[C@H](C)N(c2ncnc3c2c(C2CC2)cn3-c2cccc(Cl)c2)C[C@H]1C", "EC50", "100 to 500 nM"],
  ["C[C@H]1CN(C(=O)OC(C)(C)C)CCN1c1ncnc2c1c(C1CC1)cn2-c1cc(Cl)cc(Cl)c1", "EC50", "< 100 nM"],
  ["C[C@@H]1CN(c2ncnc3c2c(C(F)(F)F)cn3-c2cc(F)cc(F)c2)[C@@H](C)CN1C(=O)OC(C)(C)C", "EC50", "< 100 nM"],
  ["C[C@@H]1CN(c2ncnc3c2c(N(C)C)cn3-c2cccc(Cl)c2)CCN1C(=O)OC(C)(C)C", "EC50", "< 100 nM"],
  ["C[C@H]1CN(C(=O)OC(C)(C)C)CCN1c1ncnc2c1c(N1CCOCC1)cn2-c1cc(F)cc(F)c1", "EC50", "100 to 500 nM"],
  ["C[C@H]1CN(C(=O)OC(C)(C)C)CCN1c1ncnc2c1c(C1CC1)cn2-c1ccc(Cl)cc1", "EC50", "< 100 nM"],
  ["CC(C)(C)OC(=O)N1CCN(c2nccc3c2c(C2CC2)cn3-c2ccc(Cl)cc2)CC1", "EC50", "< 100 nM"]
]}

###

SYSTEM NAME: TRPML3 (Homo sapiens, UniProt Q8TDD5)
Construct: expressed in transfected cells
Sequence (Q8TDD5 whole entry): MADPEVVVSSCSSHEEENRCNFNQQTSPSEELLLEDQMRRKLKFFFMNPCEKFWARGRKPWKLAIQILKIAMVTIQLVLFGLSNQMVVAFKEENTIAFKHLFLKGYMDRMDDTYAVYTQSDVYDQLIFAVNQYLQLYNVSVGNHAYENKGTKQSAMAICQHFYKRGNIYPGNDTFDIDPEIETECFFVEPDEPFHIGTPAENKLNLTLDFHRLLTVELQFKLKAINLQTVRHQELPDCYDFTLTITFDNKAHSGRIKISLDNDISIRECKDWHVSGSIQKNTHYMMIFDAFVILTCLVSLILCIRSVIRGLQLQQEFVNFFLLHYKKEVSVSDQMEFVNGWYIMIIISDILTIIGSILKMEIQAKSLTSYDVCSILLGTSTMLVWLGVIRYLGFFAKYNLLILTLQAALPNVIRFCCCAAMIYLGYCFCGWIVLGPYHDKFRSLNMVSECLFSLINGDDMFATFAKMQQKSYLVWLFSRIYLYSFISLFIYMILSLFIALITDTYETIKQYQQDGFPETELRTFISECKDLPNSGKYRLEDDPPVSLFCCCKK
EXPERIMENT SUMMARY: Fluorescent TRPML3 assay (performed as for TRPML1, substituting the TRPML3 subtype)
Type: cell-based
CONDITIONS: fluorescent calcium assay
Quick reference: EC50 of the listed items.
READOUT: EC50

{"columns": ["MOLECULE", "SYSTEM NAME", "RESULT"],
 "data": [
  ["C[C@H]1CN(C(=O)OC(C)(C)C)CCN1c1ncnc2c1c(C1CC1)cn2-c1ncc(C#N)[nH]1", "TRPML3 (Homo sapiens, UniProt Q8TDD5)", "500 to 2000 nM"],
  ["C[C@H]1CN(C(=O)OC(C)(C)C)CCN1c1ncnc2c1c(C1CC1)cn2-c1cc(C#N)cnn1", "TRPML3 (Homo sapiens, UniProt Q8TDD5)", "< 100 nM"],
  ["CCOC(=O)N1C[C@H](C)N(c2ncnc3c2c(-c2ccccc2F)cn3-c2cc(C)ccn2)C[C@H]1C", "TRPML3 (Homo sapiens, UniProt Q8TDD5)", "< 100 nM"],
  ["C[C@H]1CN(C(=O)OC(C)(C)C)CCN1c1ncnc2c1c(C(F)(F)F)cn2-c1cc(C#N)ccn1", "TRPML3 (Homo sapiens, UniProt Q8TDD5)", "< 100 nM"],
  ["C[C@H]1CN(C(=O)OC(C)(C)C)CCN1c1ncnc2c1c(-c1ccncc1)cn2-c1cc(F)cc(F)c1", "TRPML3 (Homo sapiens, UniProt Q8TDD5)", "100 to 500 nM"],
  ["CC(C)(C)OC(=O)N1CCN(c2ncnc3c2c(C2CC2)cn3-c2cc(F)cc(F)c2)C[C@@H]1CF (single isomer, unassigned)", "TRPML3 (Homo sapiens, UniProt Q8TDD5)", "100 to 500 nM"],
  ["C[C@H]1CN(C(=O)OC(C)(C)C)CCN1c1ncnc2c1c(-c1nccnc1C(F)(F)F)cn2-c1cccc(Cl)c1", "TRPML3 (Homo sapiens, UniProt Q8TDD5)", "100 to 500 nM"],
  ["CC(C)(C)OC(=O)N1CCN(c2ncnc3c2c(C2CC2)cn3-c2cc(C#N)ccn2)CC12CC2", "TRPML3 (Homo sapiens, UniProt Q8TDD5)", "< 100 nM"],
  ["CC(OC(=O)N1CCN(c2ncnc3c2c(-c2ccccc2F)cn3-c2cc(C#N)ccn2)[C@@H](C)C1)C(F)(F)F (stereo partly shown)", "TRPML3 (Homo sapiens, UniProt Q8TDD5)", "< 100 nM"],
  ["C[C@@H]1CN(c2ncnc3c2c(-c2ccncc2)cn3-c2cc(F)cc(Cl)c2)CCN1C(=O)OC(C)(C)C", "TRPML3 (Homo sapiens, UniProt Q8TDD5)", "100 to 500 nM"],
  ["C[C@H]1CN(C(=O)OC(C)(C)C)CCN1c1ncnc2c1c(-n1cccn1)cn2-c1cccc(Cl)c1", "TRPML3 (Homo sapiens, UniProt Q8TDD5)", "< 100 nM"],
  ["CCOC(=O)N1C[C@H](C)N(c2ncnc3c2c(-c2ccccc2F)cn3-c2cccnc2)C[C@H]1C", "TRPML3 (Homo sapiens, UniProt Q8TDD5)", "500 to 2000 nM"],
  ["C[C@@H]1CN(c2ncnc3c2c(-c2cccnc2)cn3-c2cc(F)cc(Cl)c2)CCN1C(=O)OC(C)(C)C", "TRPML3 (Homo sapiens, UniProt Q8TDD5)", "< 100 nM"],
  ["C[C@@H]1CN(c2ncnc3c2c(N2CCC(F)(F)C2)cn3-c2cccc(Cl)c2)CCN1C(=O)OC(C)(C)C", "TRPML3 (Homo sapiens, UniProt Q8TDD5)", "< 100 nM"],
  ["C[C@H]1CN(C(=O)OC(C)(C)C)CCN1c1ncnc2c1c(N1CCC1)cn2-c1cc(C#N)ccn1", "TRPML3 (Homo sapiens, UniProt Q8TDD5)", "< 100 nM"],
  ["C[C@H]1CN(C(=O)OC(C)(C)C)CCN1c1ncnc2c1c(C1CC1(F)F)cn2-c1cc(C#N)ccn1 (stereo partly shown)", "TRPML3 (Homo sapiens, UniProt Q8TDD5)", "< 100 nM"],
  ["CCOC(=O)N1C[C@H](C)N(c2ncnc3c2c(-c2ccccc2F)cn3-c2ccccn2)C[C@H]1C", "TRPML3 (Homo sapiens, UniProt Q8TDD5)", "100 to 500 nM"],
  ["CC(C)N(C)c1cn(-c2cc(C#N)ccn2)c2ncnc(N3CCN(C(=O)OC(C)(C)C)C[C@@H]3C)c12", "TRPML3 (Homo sapiens, UniProt Q8TDD5)", "< 100 nM"],
  ["CC(C)(C)OC(=O)N1CCN(c2ncnc3c2c(C2CC2)cn3-c2cc(Cl)cc(Cl)c2)CC1", "TRPML3 (Homo sapiens, UniProt Q8TDD5)", "< 100 nM"],
  ["C[C@@H]1CN(c2ncnc3c2c(N2CCC[C@@H]2C)cn3-c2cccc(Cl)c2)CCN1C(=O)OC(C)(C)C", "TRPML3 (Homo sapiens, UniProt Q8TDD5)", "100 to 500 nM"],
  ["C[C@H]1CN(C(=O)OC(C)(C)C)CCN1c1ncnc2c1c(-c1cccnc1)cn2-c1cccc(F)c1", "TRPML3 (Homo sapiens, UniProt Q8TDD5)", "100 to 500 nM"],
  ["Cc1cncc(-n2cc(C3CC3)c3c(N4CCN(C(=O)OC(C)(C)C)CC4)ncnc32)c1", "TRPML3 (Homo sapiens, UniProt Q8TDD5)", "100 to 500 nM"],
  ["CC(C)(C)OC(=O)N1CCN(c2ncnc3c2c(-c2ccccn2)cn3-c2ccc(F)c(Cl)c2)CC1", "TRPML3 (Homo sapiens, UniProt Q8TDD5)", "100 to 500 nM"],
  ["CCN(CC)c1cn(-c2cc(C#N)ccn2)c2ncnc(N3CCN(C(=O)OC(C)(C)C(F)(F)F)C[C@@H]3C)c12", "TRPML3 (Homo sapiens, UniProt Q8TDD5)", "< 100 nM"],
  ["C[C@@H]1CN(C(=O)OC(C)(C)C)CCN1c1ncnc2c1c(C1CC1)cn2-c1ccc(Cl)cc1", "TRPML3 (Homo sapiens, UniProt Q8TDD5)", "< 100 nM"],
  ["C[C@@H]1CN(c2ncnc3c2c(-c2ccccn2)cn3-c2cc(C#N)ccn2)CCN1C(=O)OC(C)(C)C", "TRPML3 (Homo sapiens, UniProt Q8TDD5)", "< 100 nM"],
  ["C[C@H]1CN(C(=O)OC(C)(C)C)CCN1c1ncnc2c1c(C1CC1)cn2-c1cc(C#N)n(C)n1", "TRPML3 (Homo sapiens, UniProt Q8TDD5)", "< 100 nM"],
  ["CCCN(CC)c1cn(-c2cc(C#N)ccn2)c2ncnc(N3CCN(C(=O)OC(C)(C)C)C[C@@H]3C)c12", "TRPML3 (Homo sapiens, UniProt Q8TDD5)", "< 100 nM"]
]}

###

SYSTEM NAME: TRPML3 (Homo sapiens)
Construct: expressed in transfected cells
EXPERIMENT SUMMARY: Fluorescent TRPML3 assay (performed as for TRPML1, substituting the TRPML3 subtype)
Format: cell-based

{"columns": ["COMPOUND", "EC50"],
 "data": [
  ["C[C@@H]1CN(c2nccc3c2c(C(F)(F)F)cn3-c2cc(C#N)ccn2)[C@@H](C)CN1C(=O)OC(C)(C)C", "< 100 nM"],
  ["CC1CC1c1cn(-c2cc(C#N)ccn2)c2ncnc(N3CCN(C(=O)OC(C)(C)C)C[C@@H]3C)c12 (some centres unmarked)", "< 100 nM"],
  ["C[C@H]1CN(C(=O)OC(C)(C)C)CCN1c1nccc2c1c(N1CCC1)cn2-c1cccc(F)c1", "< 100 nM"],
  ["C[C@H]1CN(C(=O)OC(C)(C)C)CCN1c1ncnc2c1c(C1CCC1)cn2-c1cccc(F)c1", "< 100 nM"],
  ["C[C@@H]1CN(c2ncnc3c2c(CC(F)(F)F)cn3-c2nccc(C#N)n2)[C@@H](C)CN1C(=O)OC(C)(C)C", "100 to 500 nM"],
  ["C[C@@H]1CN(c2ncnc3c2c(C(F)(F)F)cn3-c2cc(C#N)ncn2)[C@@H](C)CN1C(=O)OC(C)(C)C", "< 100 nM"],
  ["C[C@@H]1CN(c2ncnc3c2c(C2CCC2)cn3-c2cccc(Cl)c2)[C@@H](C)CN1C(=O)OC(C)(C)C", "500 to 2000 nM"],
  ["C[C@@H]1CN(c2ncnc3c2c(C2CCC2)cn3-c2cc(C#N)ccn2)[C@@H](C)CN1C(=O)OC(C)(C)C", "< 100 nM"],
  ["Cc1cn(-c2ccc(F)cc2)c2ncnc(N3CCN(C(=O)OC(C)(C)C)C[C@@H]3C)c12", "< 100 nM"],
  ["C[C@@H]1CN(c2nccc3c2c(C2CC2)cn3-c2cccc(F)c2)CCN1C(=O)OC(C)(C)C", "< 100 nM"],
  ["CC(C)c1cn(-c2cc(C(F)(F)F)ccn2)c2ncnc(N3C[C@@H](C)N(C(=O)OC(C)(C)C)C[C@@H]3C)c12", "< 100 nM"],
  ["C[C@@H]1CN(c2ncnc3c2c(C(F)(F)F)cn3-c2cc(C#N)ccn2)[C@@H](C)CN1C(=O)OC1(C)CCC1", "< 100 nM"],
  ["Cc1cn(-c2cc(F)cc(F)c2)c2ncnc(N3C[C@@H](C)N(C(=O)OC(C)(C)C)C[C@@H]3C)c12", "< 100 nM"],
  ["Cc1cn(-c2cccc(F)c2)c2ncnc(N3C[C@@H](C)N(C(=O)OC(C)(C)C)C[C@@H]3C)c12", "100 to 500 nM"]
]}
